Recorded shrunken log2 fold change by entry
# Test system: Escherichia coli TOP10
# PROTOCOL DETAILS: shrunken log2 fold change of peptide-encoding DNA abundance (4.5 h post-induction vs induction); higher = less antimicrobial activity (less host growth inhibition)
# MEASUREMENT CONTEXT: time post-induction: 4.5 h; library: site-saturation at positions 5, 18, 19, 20
Please respond with just the number, no unit label.

* RRIRTRPPRLPRPRPRPQRHPRP | 0.19
* RRIRARPPRLPRPRPRPKMEPRP | 0.229
* RRIRYRPPRLPRPRPRPDNPPRP | -0.877

// query Jot down shrunken log2 fold change (Escherichia coli TOP10) of `RRIRWRPPRLPRPRPRPNSIPRP` .
// result -0.396

// query // fetch shrunken log2 fold change; item: `RRIRLRPPRLPRPRPRPCLYPRP` ; system: Escherichia coli TOP10
// result -0.247

// query Report shrunken log2 fold change on Escherichia coli TOP10 for this entry: `RRIRWRPPRLPRPRPRPKRAPRP`
// result 0.797

// query For Escherichia coli TOP10, give the measured shrunken log2 fold change of the entry `RRIRERPPRLPRPRPRPHCGPRP`
// result -0.333

----------
# Test system: Escherichia coli TOP10
# PROTOCOL DETAILS: shrunken log2 fold change of peptide-encoding DNA abundance (4.5 h post-induction vs induction); higher = less antimicrobial activity (less host growth inhibition)
# MEASUREMENT CONTEXT: time post-induction: 4.5 h; library: site-saturation at positions 5, 18, 19, 20
Below, each of the sequences is paired with its reported shrunken log2 fold change value.
In your answer, state the number alone without any accompanying words.

Completed entries (count: 5):
• RRIRVRPPRLPRPRPRPGCNPRP = -0.216
• RRIRARPPRLPRPRPRPCDFPRP = -0.128
• RRIRPRPPRLPRPRPRPMDNPRP = -0.683
• RRIRFRPPRLPRPRPRPITHPRP = -0.49
• RRIRYRPPRLPRPRPRPDEFPRP = 0.0196

// query Give shrunken log2 fold change for the following sequence: `RRIRRRPPRLPRPRPRPIICPRP`
// result 0.0738

// query Identify the reported shrunken log2 fold change for the following entry. `RRIRSRPPRLPRPRPRPAVLPRP`
// result -0.355

----------
# Test system: Escherichia coli TOP10;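 further: peptides expressed intracellularly from a pBAD plasmid library in pooled LB shake-flask culture, induced with 0.3% L-arabinose, DNA abundance read by NGS, three biological replicates, DESeq2 with apeglm shrinkage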
# PROTOCOL DETAILS: shrunken log2 fold change of peptide-encoding DNA abundance (4.5 h post-induction vs induction); higher = less antimicrobial activity (less host growth inhibition)
# MEASUREMENT CONTEXT: time post-induction: 4.5 h; library: site-saturation at positions 5, 18, 19, 20
Mark not met for shrunken log2 fold change values under 0.07, and met for everything at or above.

Solved cases below.
• RRIRERPPRLPRPRPRPALAPRP = met
• RRIRARPPRLPRPRPRPESMPRP = met

// query Identify whether the reported shrunken log2 fold change of the following sequence is 0.07 or greater: `RRIRPRPPRLPRPRPRPVWFPRP`
// result met

// query Kindly determine if shrunken log2 fold change recorded for `RRIRGRPPRLPRPRPRPRFRPRP` is above or exactly 0.07.
// result met

// query Threshold query (shrunken log2 fold change >= 0.07) on `RRIRKRPPRLPRPRPRPSGTPRP`
// result met

// query For this sequence, is measured shrunken log2 fold change 0.07 or higher? `RRIRGRPPRLPRPRPRPMEPPRP`
// result met

// query Reported shrunken log2 fold change reaches at least 0.07 for `RRIRYRPPRLPRPRPRPADTPRP` ?
// result not met
